Measured values drawn from a melting point compilation (Tetko et al.; mined from patent text by program, amines drawn as free bases though some values may be those of a salt) for this set.

Collected melting point values appear next to each entry.

Worked cases, melting point given:
COC(=O)C(Cc1ccc(O)cc1)c1cc2cc(C#N)ccc2o1 (stereo not given) = 110 to 111 °C
COc1c(NC(=O)c2ccc(C)c(-n3cc(C(=O)O)nn3)c2)cc(C(C)(C)C)cc1NS(C)(=O)=O = 222 to 224 °C
CCSC1CCC(=O)N1 (stereo not given) = 65 to 68 °C
COc1cc(CCCS2(OCC(=O)O)C=CN=C2)cc(OCc2ccc3ccccc3c2)c1 (stereo not given) = 160 to 161 °C

Asked: Provide measured melting point value, entry: "O=C(Cn1c(-c2ccc(Cl)cc2)nc2cccnc21)NC1CC1"
Given back: 231 to 232 °C
